Origin of values: patent US20060177474A1

parameter_measured: melting point (°C)
State just the number; it will be interpreted in °C.

Entry Cc1cc(C(F)(C(F)(F)F)C(F)(F)F)ccc1NC(=O)c1cccc(I)c1C(=O)NC(C)C[S+](C)[O-] (stereo not shown) ; melting point = 134

We now examine a further compound.
Entry Cc1cc(C(F)(C(F)(F)F)C(F)(F)F)ccc1N(C(=O)c1c(I)cccc1C(N)=O)C(C)CS(C)(=O)=O (stereo not shown) ; melting point = 82
